Numbers sourced from PubChem BioAssay (NCI).

Reported growth values for the following compounds.
- Tested on: CAKI-1 renal
- Procedure Summary: NCI-60 one-dose screen, 48 h (100 = growth as untreated, 0 = no growth, -100 = all killed)
- Protocol Conditions: 10 µM unless noted
About 83,000 compounds went through this panel and 20% of them were active in at least one assay; those are over-represented in the sample as a whole.
Quick reminder: number only, in %, skip the unit.

Compound: C=CCn1c(C)nc2cc(Nc3nc(Cl)nc4ccccc34)ccc21
Unit Descriptor: %
growth: 87.2
//
Compound: COc1ccc(CNC(=O)C(O)C(Cc2ccccc2)NC(=O)c2[nH]c3ccccc3c(=O)c2C)cc1OC (stereo not given)
Unit Descriptor: %
growth: 99.6
//
Compound: Cc1cccc(NC(=O)N/C(N)=N/c2nc(C)c(C)s2)c1
Unit Descriptor: %
growth: 30.6
//
Compound: Cc1ccc(CCC(=O)Nc2ncc(Cc3cc(Cl)ccc3Cl)s2)o1
Unit Descriptor: %
growth: 26.2
//
Compound: C=CCOC1=CC(=O)c2ccccc2C1=O
Unit Descriptor: %
growth: 101
//
Compound: COc1ccc(NC(=O)CSc2nnc(-c3cc(-c4ccc(S(N)(=O)=O)cc4)nc4ccccc34)n2-c2ccccc2)cc1
Unit Descriptor: %
growth: 61.2
//
Compound: Cc1cc(NCCCCNc2ccnc3cc(Cl)ccc23)nc(Nc2ccc(C(=O)N3CCCC3)cc2)n1
Unit Descriptor: %
growth: 97.1
//
Compound: Fc1ccc(CNc2c3ccccc3nc3ccccc23)cc1F
Unit Descriptor: %
growth: 25.3
//
Compound: O=C(Nc1ccc(Cl)cc1)Nc1ccc(Cl)c(C(F)(F)F)c1
Unit Descriptor: %
growth: 8.5

Now, please, on to the next compound.
-- ask What does the record list as growth for `Cc1ccc(Cc2cnc(NC(=O)c3ccc4noc(-c5ccccc5)c4c3)s2)cc1` ?
-- reply 78.2

---

- Tested on: MDA-MB-435 melanoma
- Procedure Summary: NCI-60 one-dose screen, 48 h
- Protocol Conditions: 10 µM unless noted
About 83,000 compounds went through this panel and 20% of them were active in at least one assay; those are over-represented in the sample as a whole. Calls of active or inactive are those of the source. Rule for the calls: active = growth percent below 10; inactive = the rest.
Hi there, use one of these labels in your reply, thanks! true (1) = active, false (0) = inactive

Molecule: CC(C)=C[C@@H]1c2c(c3ccccc3n(C)c2=O)O[C@H]2c3c(c4ccccc4n(C)c3=O)OC(C)(C)[C@@H]12
Cat: false (0)
--
Molecule: Cc1ccccc1NC(=O)N/C(N)=N/c1nc(C)c(C)s1
Cat: true (1)
--
Molecule: CC(CN1CCCCC1)C(=O)c1ccccc1 (stereo not given)
Cat: false (0)

-- ask Returns: the outcome recorded for `Fc1ccc(CNc2c3ccccc3nc3ccccc23)cc1F` in this assay.
-- reply false (0)

---

- Tested on: SF-539 CNS
- Procedure Summary: NCI-60 one-dose screen, 48 h (100 = growth as untreated, 0 = no growth, -100 = all killed)
- Protocol Conditions: 10 µM unless noted
This is part of a sample that, as a whole, favours compounds with a hit. Of some 83,000 tested, about 20% had one in any assay. Activity calls are given as the source filed them. How the source made its calls: active means growth percent below 10; inactive means the rest.
Readout: growth

Examples from the recorded data:
Molecule: COc1ccc(N2CCN(c3nc(-c4cc(OC)c(OC)c(OC)c4)nc4ccccc34)CC2)cc1
Recorded Measurement: 96.9% (inactive)
--
Molecule: CCN(CC)CCCNc1ccc(Nc2ccc(OC)cc2)cc1
Recorded Measurement: 98.6% (inactive)
--
Molecule: CC1=C(SCCC(=O)OC(C[Se]C2=C(C)C(=O)c3ccccc3C2=O)C(=O)NCCCCCC(=O)OCc2ccccc2)C(=O)c2ccccc2C1=O (centres undefined)
Recorded Measurement: 9.31% (active)

-- ask What does the record list as growth for `CC(C)(C)n1cc(-c2ccnc(NCCCNS(=O)(=O)c3ccccc3)c2)c(-c2ccccc2)n1` ?
-- reply 66.4% (inactive)

-- ask What does the record list as growth for COc1ccc(/C=N/C2=C(C#N)C(c3ccc(OC)cc3)c3ccc4ccccc4c3O2)cc1 (centres undefined) ?
-- reply 79.5% (inactive)

-- ask What does the record list as growth for `Cc1c(O)cc(-c2cnc(N/N=C\c3ccc(Cl)cc3)s2)c(O)c1C` ?
-- reply 78.8% (inactive)

-- ask What does the record list as growth for Cc1ccc(-c2cc3c(cc2O)C2CCCCC2(N2CCOCC2)O3)cc1 (centres undefined) ?
-- reply 105% (inactive)

-- ask What does the record list as growth for `COc1cccc(-c2nn(-c3ccccc3)cc2-c2ccnc(NCCCNC(=O)c3ccccc3)c2)c1` ?
-- reply 80.2% (inactive)

-- ask What does the record list as growth for `Cc1c(C)c2c(c(C)c1OCC(=O)O)CC[C@@](C)(CCC[C@@H](C)CCC[C@@H](C)CCCC(C)C)O2` ?
-- reply -7.25% [50 µM] (active)
